Quick reference for concentration at 0.67 h among some molecules
experiment: Oral gavage pharmacokinetics, jugular and portal vein sampling, first pass metabolism; assay type: in vivo, rat; conditions: male, Sprague Dawley, rat, plasma (portal vein sample); rats N=4; Compound 1 75 mg/kg oral gavage; portal sample; 0.67 hrs
Give a bare numeral; the unit ng/mL is implied.

Task item: Note down concentration at 0.67 h recorded for COc1cc2c(cc1OC)-c1nn(C3OC(C(=O)O)C(O)C(O)C3O)c(Nc3cccc(F)c3)c1C2 (stereo in doubt)
Reply: 290

Task item: Note down concentration at 0.67 h recorded for "COc1cc2c(cc1OC)-c1n[nH]c(Nc3cccc(F)c3)c1C2"
Reply: 2300

Task item: Note down concentration at 0.67 h recorded for "COc1cc2c(cc1OC)-c1n[nH]c(N(c3cccc(F)c3)[C@H]3O[C@@H](C(=O)O)[C@H](O)[C@@H](O)[C@@H]3O)c1C2"
Reply: 26000

The reported measurements were obtained from patent US20080031866A1.
